- test target: NCp9 (p7 + SP2) (HIV-1, UniProt P12493 378-448)
- experiment: fluorescence anisotropy salt titration; Kd extrapolated to 1 M NaCl; Zeff 4.3 ± 0.7
- setup conditions: protein: recombinant; tags: none (Trx tag removed by TEV); label: 5' FAM; single strand
result type: Kd

Exam item: What Kd value was documented for this binder, ACTGGACCAAATTCTAATGTGTGTGTACGAAGCATAGCGG (ssDNA) [40-nt ssDNA] ?
Marked response: 92 µM
